Values of IC50 reported for hERG (Homo sapiens (Human), UniProt Q12809) appear below.

* CN1CCN(c2ccc(-n3cc(C(=O)NCCCN4CCOCC4)nn3)cc2NC(=O)c2cnc(Cl)cc2C(F)(F)F)CC1 [Compound 3] | > 10 µM
* C[C@H]1CN(c2ccc(-n3cc(C(=O)NCCCN4CCOCC4)nn3)cc2NC(=O)c2cnc(Cl)cc2C(F)(F)F)CCN1C [Compound 9] | > 10 µM

// query Quick check: IC50 of CN1CCN(c2cc(F)c(-n3cc(C(=O)NCCCN4CCOCC4)nn3)cc2NC(=O)c2cnc(Cl)cc2C(F)(F)F)CC1 [Compound 7] ?
// result > 10 µM

---

target: MLL1-WDR5 protein-protein interaction (Homo sapiens (Human)); test: WDR5 TR-FRET assay (MLL1-WDR5 PPI inhibition); format: binding; conditions: 5 nM WDR5 protein, 10 nM peptide, read-out: IC50 (nM), MLL1-WDR5 PPI inhibitory activity
Test readout: IC50 (nM)
The figure you give is taken to be in nM; do not add the unit.

Example entries begin here.
* Cc1c(Cl)ncc(C(=O)Nc2cc(-n3cc(C(=O)NCCCN4CCOCC4)nn3)ccc2N2CCN(C)CC2)c1Cl [Example 21] | 6570
* COc1cc(C(F)(F)F)c(C(=O)Nc2cc(-n3cc(C(=O)NCCCN4CCOCC4)nn3)c(F)cc2N2C[C@@H](C)N(C)[C@@H](C)C2)cn1 [Example 55] | 2820
* C[C@H]1CN(c2ccc(-n3cc(C(=O)NCCCN4CCOCC4)nn3)cc2NC(=O)c2c[nH]c(=O)cc2C(F)(F)F)CCN1C [Example 10] | 9.12

// query Quick check: IC50 of C[C@@H]1CN(c2ccc(-n3cc(C(=O)NCCCN4CCOCC4)nn3)cc2NC(=O)c2c[nH]c(=O)cc2C(F)(F)F)C[C@H](C)N1C [Example 2] ?
// result 16.7

// query Can you handle CN1CCN(c2ccc(-n3cc(C(=O)NCCCN4CCOCC4)nn3)cc2NC(=O)c2ccc(Cl)nc2C(F)(F)F)CC1 [Example 37] next?
// result 1960

// query Can you handle C[C@H]1CN(c2cc(F)c(-n3cc(C(=O)N4CCN(C)CC4)nn3)cc2NC(=O)c2cnc(Cl)cc2C(F)(F)F)C[C@H](C)N1C [HYBI-284] next?
// result 1270

Where these numbers come from: patent US20230286948A1
